- assay-target: Neuronal acetylcholine receptor subunit alpha-7 (Rattus norvegicus, UniProt Q05941)
- Sequence (Q05941 whole entry): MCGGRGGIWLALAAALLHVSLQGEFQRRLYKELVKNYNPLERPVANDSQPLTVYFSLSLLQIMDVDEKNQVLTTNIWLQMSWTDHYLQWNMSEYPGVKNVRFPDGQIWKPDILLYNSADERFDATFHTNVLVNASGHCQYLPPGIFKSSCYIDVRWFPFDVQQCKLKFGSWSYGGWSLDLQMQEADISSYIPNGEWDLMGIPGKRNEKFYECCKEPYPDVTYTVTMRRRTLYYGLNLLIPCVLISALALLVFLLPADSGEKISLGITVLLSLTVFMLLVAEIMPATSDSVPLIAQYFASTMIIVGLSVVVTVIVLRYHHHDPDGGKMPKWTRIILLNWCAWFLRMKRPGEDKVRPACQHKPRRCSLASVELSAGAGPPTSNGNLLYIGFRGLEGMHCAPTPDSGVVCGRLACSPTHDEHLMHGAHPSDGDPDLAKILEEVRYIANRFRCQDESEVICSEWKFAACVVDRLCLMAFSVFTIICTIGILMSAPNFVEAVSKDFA
- assay-procedure: Agonist activity at rat nAChR alpha7 expressed in GH4C1 cells by fluorescent calcium assay
- Assay type: cell-based, GH4-C1
- run-parameters: gh4-c1
observation-type: EC50

Below, each entry is followed by its recorded EC50 result.
1. c1ccc(-c2ccc(-n3nnnc3CCCCN3CCOCC3)cc2)cc1 ... Not Active
2. O=C(NCCCCN1CCOCC1)c1ccc(-c2cccnc2)cc1 ... Not Active
3. c1ccc(-c2ccc(-c3nnnn3CCCCN3CCOCC3)cc2)cc1 ... Not Active
4. c1cncc(-c2ccc(-c3nnnn3CCCCN3CCOCC3)cc2)c1 ... Not Active

[Q] Recorded EC50 for c1cncc(-c2ccc(-n3nnnc3CCCCN3CCOCC3)cc2)c1 , please?
[A] Not Active

* * *

- assay-target: Neuronal acetylcholine receptor subunit alpha-7 (Rattus norvegicus, UniProt Q05941)
- assay-procedure: Displacement of [3H]EB from rat nAChR alpha7 expressed in HEK293 cell membranes by liquid scintillation counting
pKi: −log10 of the molar value.
Answer FALSE if pKi is under 4, and TRUE if it is 4 or more.

// known answers, use as guide
1) O=C(NCCCCN1CCOCC1)c1ccc(-c2cccnc2)cc1 ... TRUE
2) c1ccc(-c2ccc(-n3nnnc3CCCCN3CCOCC3)cc2)cc1 ... FALSE
3) O=C(CCCCN1CCOCC1)Nc1ccc(-c2ccccc2)cc1 ... TRUE

Next item in the queue.
[Q] Is reported pKi greater than or equal to 4 here: O=C(NCCCCN1CCOCC1)c1ccc(-c2ccccc2)cc1
[A] TRUE

* * *

- assay-target: Neuronal acetylcholine receptor subunit alpha-7 (Rattus norvegicus)
- assay-procedure: Agonist activity at rat nAChR alpha7 expressed in GH4C1 cells by fluorescent calcium assay
- Type: cell-based, GH4-C1
- run-parameters: read-out: EC50
observation-type: EC50 (nM)
The reply should be a number in nM, with the unit left off.

Example cases with answers are listed next.
1) O=C(CCCCN1CCOCC1)Nc1ccc(-c2cccnc2)cc1 ... 860
2) O=C(CCCCN1CCOCC1)Nc1ccc(-c2ccccc2)cc1 ... 1750

Could you now look at the following molecule, please?
[Q] Query the reported EC50 for Neuronal acetylcholine receptor subunit alpha-7 (Rattus norvegicus); item: O=C(NCCCCN1CCOCC1)c1ccc(-c2ccccc2)cc1
[A] 2370

* * *

Recorded pKi, one value per entry.
- assay-target: Neuronal acetylcholine receptor; alpha4/beta2 (Rattus norvegicus, UniProt P09483+P12390)
- Sequence (P09483 whole entry): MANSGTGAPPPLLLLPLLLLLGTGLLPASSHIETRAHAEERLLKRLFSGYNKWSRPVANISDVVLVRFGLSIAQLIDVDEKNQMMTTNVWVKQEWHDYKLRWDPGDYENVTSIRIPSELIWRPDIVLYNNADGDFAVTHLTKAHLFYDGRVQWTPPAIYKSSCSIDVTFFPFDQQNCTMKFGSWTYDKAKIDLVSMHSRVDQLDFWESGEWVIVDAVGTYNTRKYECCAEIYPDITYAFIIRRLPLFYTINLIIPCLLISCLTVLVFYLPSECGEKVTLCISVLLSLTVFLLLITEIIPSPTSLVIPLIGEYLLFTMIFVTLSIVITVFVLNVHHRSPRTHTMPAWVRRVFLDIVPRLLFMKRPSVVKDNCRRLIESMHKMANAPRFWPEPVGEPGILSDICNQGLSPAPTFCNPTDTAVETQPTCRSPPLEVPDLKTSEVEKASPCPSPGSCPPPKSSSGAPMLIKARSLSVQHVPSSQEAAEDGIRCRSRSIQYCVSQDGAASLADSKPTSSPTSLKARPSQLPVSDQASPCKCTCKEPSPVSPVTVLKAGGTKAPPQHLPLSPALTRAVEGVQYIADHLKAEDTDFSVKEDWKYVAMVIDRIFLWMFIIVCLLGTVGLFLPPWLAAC
- Sequence (P12390 whole entry): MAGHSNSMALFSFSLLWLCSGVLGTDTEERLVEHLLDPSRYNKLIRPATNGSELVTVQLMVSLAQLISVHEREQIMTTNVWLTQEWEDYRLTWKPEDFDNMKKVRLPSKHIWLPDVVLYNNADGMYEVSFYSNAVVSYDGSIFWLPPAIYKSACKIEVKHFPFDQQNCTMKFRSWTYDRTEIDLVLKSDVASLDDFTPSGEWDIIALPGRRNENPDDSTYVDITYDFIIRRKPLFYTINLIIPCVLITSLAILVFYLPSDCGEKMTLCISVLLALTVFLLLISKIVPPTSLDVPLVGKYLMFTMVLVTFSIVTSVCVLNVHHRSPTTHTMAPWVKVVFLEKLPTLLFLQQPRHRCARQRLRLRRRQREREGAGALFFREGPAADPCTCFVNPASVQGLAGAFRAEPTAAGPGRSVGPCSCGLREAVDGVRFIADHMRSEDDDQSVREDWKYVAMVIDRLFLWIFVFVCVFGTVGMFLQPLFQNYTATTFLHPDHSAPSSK
- assay-procedure: Displacement of [3H]EB from rat nAChR alpha4beta2 expressed in HEK293 cell membranes by liquid scintillation counting
- run-parameters: read-out: Ki
pKi: −log10 of the molar value.

Examples from the recorded data:
1) O=C(NCCCCN1CCOCC1)c1ccc(-c2cccnc2)cc1 ... < 5.00
2) O=C(NCCCCN1CCOCC1)c1ccc(-c2ccccc2)cc1 ... < 5.00
3) O=C(CCCCN1CCOCC1)Nc1ccc(-c2ccccc2)cc1 ... < 5.00

Continue with the next compound.
[Q] Fill in the recorded pKi for this compound, with Neuronal acetylcholine receptor; alpha4/beta2 (Rattus norvegicus, UniProt P09483+P12390) as test system: O=C(CCCCN1CCOCC1)Nc1ccc(-c2cccnc2)cc1
[A] < 5.00
